Values were extracted from patent US11149043B2.

Test: Solubility assay (high throughput 96-well plate, pH 7.4 phosphate buffer)
Format: physicochemical
Details: aqueous buffer, thermodynamic from solid, shaken two days at room temperature, UV-UPLC
Parameter measured: solubility at 2 days (µM)
Kindly provide the numeric value in µM only, without the unit symbol.

Sample answers from the record:
# Smiles text, solubility at 2 days / µM
rows = [
    ("CC(C)(COP(=O)(O)O)CC(=O)O[C@H]1CC2(NC(=O)COc3ccc(Cl)c(F)c3)CCC1(NC(=O)COc1ccc(Cl)c(F)c1)CC2", 317),
    ("O=C(COc1ccc(Cl)c(F)c1)NC12CCC(NC(=O)COc3ccc(Cl)c(F)c3)(CC1)[C@@H](OC(=O)Cc1ccccc1OP(=O)(O)O)C2", 936),
    ("O=C(COc1ccc(Cl)c(F)c1)NC12CCC(NC(=O)COc3ccc(Cl)c(F)c3)(CC1)[C@@H](OC(=O)CCCOP(=O)(O)O)C2", 812),
    ("N[C@@H](CC(=O)O[C@H]1CC2(NC(=O)COc3ccc(Cl)c(F)c3)CCC1(NC(=O)COc1ccc(Cl)c(F)c1)CC2)C(=O)O", 59),
    ("O=C(COc1ccc(Cl)c(F)c1)NC12CCC(NC(=O)COc3ccc(Cl)c(F)c3)(CC1)[C@@H](OS(=O)(=O)O)C2", 152),
]

Query: Tell me measured solubility at 2 days for `O=C(COc1ccc(Cl)c(F)c1)NC12CCC(NC(=O)COc3ccc(Cl)c(F)c3)(CC1)[C@@H](OC(=O)CCCCOP(=O)(O)O)C2` please.
Reply: 645

Query: Supply measured solubility at 2 days of `CN(C(=O)O[C@H]1CC2(NC(=O)COc3ccc(Cl)c(F)c3)CCC1(NC(=O)COc1ccc(Cl)c(F)c1)CC2)c1ncccc1COP(=O)(O)O` in your reply.
Reply: 903

Query: Give solubility at 2 days for `O=C(COc1ccc(Cl)c(F)c1)NC12CCC(NC(=O)COc3ccc(Cl)c(F)c3)(CC1)[C@@H](OC(=O)NCCOP(=O)(O)O)C2`
Reply: 598

###

Experiment: Solubility assay (high throughput 96-well plate, pH 7.4 phosphate buffer)
Type: physicochemical
Details: aqueous buffer, thermodynamic from solid, shaken two days at room temperature, UV-UPLC
Measured solubility at 2 days accompanies every entry in the list below.

Recorded results for 2 compounds are shown here.
# Compound, Recorded result
records = [
    ("O=C(COc1ccc(Cl)c(F)c1)NC12CCC(NC(=O)COc3ccc(Cl)c(F)c3)(CC1)[C@@H](OC(=O)OCCOP(=O)(O)O)C2 [Compound 121]", "> 1000 µM"),
    ("O=C(COc1ccc(Cl)c(F)c1)NC12CCC(NC(=O)COc3ccc(Cl)c(F)c3)(CC1)[C@@H](OCOP(=O)(O)O)C2 [Compound 131]", "> 1000 µM"),
]

Query: Supply solubility at 2 days value. Item: CC(=O)O[C@H]1CC2(NC(=O)COc3ccc(Cl)c(F)c3)CCC1(NC(=O)COc1ccc(Cl)c(F)c1)CC2 (single isomer, unassigned) [Compound 100]
Reply: < 0.82 µM
